Entries and their pIC50 values follow.
- tested on: Alpha glucosidase (Homo sapiens, UniProt O43451+P10253+P14410+Q2M2H8)
- protocol description: Inhibition of alpha-glucosidase (unknown origin) using p-nitrophenyl-alpha-d-glucopyranoside as substrate preincubated for 15 mins followed by substrate addition measured after 30 mins
- Assay type: protein assay
pIC50: −log10 of the molar value.

substance_smiles=O=C1Nc2ccc(Cl)cc2/C1=N/Nc1nc(-c2ccc(Br)cc2)cs1 recorded_endpoint=pIC50 reported_result="4.46 to 5.28"
substance_smiles=Cc1ccc(C(c2c[nH]c3ccc(C(=O)NNS(=O)(=O)c4cccc(Cl)c4Cl)cc23)c2c[nH]c3ccc(C(=O)NNS(=O)(=O)c4cccc(Cl)c4Cl)cc23)cc1 recorded_endpoint=pIC50 reported_result="5.29 to 7.00"
substance_smiles=O=C(CSc1nnc(-c2ccccc2)c(-c2ccccc2)n1)Nc1nc(-c2ccc(Cl)cc2)cs1 recorded_endpoint=pIC50 reported_result="4.85 to 5.55"

Task: Quick one: pIC50 of `Cc1ccc(C(c2c[nH]c3ccc(C(=O)NNS(=O)(=O)c4cc(Cl)cc(Cl)c4)cc23)c2c[nH]c3ccc(C(=O)NNS(=O)(=O)c4cc(Cl)cc(Cl)c4)cc23)cc1` ?
Output: 5.29 to 7.00

Task: Quick one: pIC50 of `O=C(CSc1nnc(-c2ccccc2)c(-c2ccccc2)n1)Nc1nc(-c2ccc(F)cc2)cs1` ?
Output: 4.85 to 5.55

Task: Quick one: pIC50 of `O=C(CSc1nnc(-c2ccc(F)cc2)c(-c2ccc(F)cc2)n1)Nc1nc(-c2ccc(Cl)cc2)cs1` ?
Output: 4.85 to 5.55

Task: Quick one: pIC50 of `CC(C)n1cc(C2(c3cn(C(C)C)c4ccccc34)C(=O)Nc3ccccc32)c2ccccc21` ?
Output: 3.84 to 5.23

Task: Quick one: pIC50 of `O=C(CSc1nnc(-c2ccccc2)c(-c2ccccc2)n1)Nc1nc(-c2ccccc2)cs1` ?
Output: 4.85 to 5.55

----------
- protocol description: Inhibition of yeast alpha-glucosidase using p-nitrophenyl-alpha-d-glucopyranoside as substrate preincubated for 10 mins followed by substrate addition measured after 30 mins
- Parameters: species or system Saccharomyces cerevisiae
Entries and their IC50 values follow.

substance_smiles=Cc1ccc(-n2c(-c3cn(-c4ccccc4)nc3-c3cc4cc(Br)ccc4oc3=O)nc(-c3ccccc3)c2-c2ccccc2)cc1 reported_result="2.5 to 46 µM"
substance_smiles=Cc1cc2nc(-c3ccc(C(=O)N/N=C/c4ccccc4O)cc3)[nH]c2cc1C reported_result="8.4 to 179 µM"
substance_smiles=Cc1cc2nc(-c3ccc(C(=O)N/N=C/c4cccc(Cl)c4)cc3)[nH]c2cc1C reported_result="8.4 to 179 µM"
substance_smiles=COc1ccc(/C=N/NC(=O)c2ccc(-c3nc4cc(C)c(C)cc4[nH]3)cc2)cc1O reported_result="8.4 to 179 µM"
substance_smiles=Cc1cc2nc(-c3ccc(C(=O)N/N=C/c4ccccn4)cc3)[nH]c2cc1C reported_result="8.4 to 179 µM"

Task: Quick one: IC50 of `COc1ccc(O)c(/C=N/NC(=O)c2ccc(-c3nc4cc(C)c(C)cc4[nH]3)cc2)c1` ?
Output: 8.4 to 9.9 µM

Task: Quick one: IC50 of `Cc1cc2nc(-c3ccc(C(=O)N/N=C/c4cccc(O)c4O)cc3)[nH]c2cc1C` ?
Output: 8.4 to 9.9 µM

Task: Quick one: IC50 of `Cc1cc2nc(-c3ccc(C(=O)NNC(=S)Nc4ccc(Cl)cc4)cc3)[nH]c2cc1C` ?
Output: 35 to 297 µM

Task: Quick one: IC50 of `O=c1oc2ccccc2cc1-c1nn(-c2ccccc2)cc1-c1nc(-c2ccccc2)c(-c2ccccc2)n1-c1ccc(Br)cc1` ?
Output: 2.5 to 46 µM

----------
Entries and their IC50 values follow.
- tested on: Alpha glucosidase (Homo sapiens, UniProt O43451+P10253+P14410+Q2M2H8)
- protocol description: Inhibition of alpha-glucosidase (unknown origin) using p-nitrophenyl-alpha-d-glucopyranoside as substrate preincubated for 15 mins followed by substrate addition measured after 30 mins
- Format: protein assay

Here's what some known entries look like.
compound=Cc1ccc(-c2csc(NC(=O)CSc3nnc(-c4ccccc4)c(-c4ccccc4)n3)n2)cc1 tested_on="Alpha glucosidase (Homo sapiens, UniProt O43451+P10253+P14410+Q2M2H8)" recorded_endpoint=IC50 reported_result="2.8 to 14 µM"
compound=COc1cc(Br)ccc1O[C@H](C)Cn1cc(-c2ccccc2)nn1 tested_on="Alpha glucosidase (Homo sapiens, UniProt O43451+P10253+P14410+Q2M2H8)" recorded_endpoint=IC50 reported_result="14 to 218 µM"
compound=COc1cc(-c2ccc(C)cc2)ccc1O[C@H](C)Cn1cc(-c2ccc(C(F)(F)F)cc2)nn1 tested_on="Alpha glucosidase (Homo sapiens, UniProt O43451+P10253+P14410+Q2M2H8)" recorded_endpoint=IC50 reported_result="14 to 218 µM"
compound=Cc1ccc2c(c1)/C(=N/Nc1nc(-c3ccc(O)cc3)cs1)C(=O)N2Cc1ccccc1F tested_on="Alpha glucosidase (Homo sapiens, UniProt O43451+P10253+P14410+Q2M2H8)" recorded_endpoint=IC50 reported_result="5.3 µM"
compound="O=c1ccc2ccc(OCC(O)CSc3nnc(-c4ccccc4)c(-c4ccccc4)n3)cc2o1 (centres undefined)" tested_on="Alpha glucosidase (Homo sapiens, UniProt O43451+P10253+P14410+Q2M2H8)" recorded_endpoint=IC50 reported_result="32 to 148 µM"
compound=O=C(CSc1nnc(-c2ccc(Br)cc2)c(-c2ccc(Br)cc2)n1)Nc1nc(-c2ccc(Br)cc2)cs1 tested_on="Alpha glucosidase (Homo sapiens, UniProt O43451+P10253+P14410+Q2M2H8)" recorded_endpoint=IC50 reported_result="2.8 to 14 µM"
compound="O=c1oc2ccccc2cc1OCC(O)CSc1nnc(-c2cccc(Br)c2)c(-c2cccc(Br)c2)n1 (centres undefined)" tested_on="Alpha glucosidase (Homo sapiens, UniProt O43451+P10253+P14410+Q2M2H8)" recorded_endpoint=IC50 reported_result="32 µM"
compound=O=C(CSc1nnc(-c2ccc(F)cc2)c(-c2ccc(F)cc2)n1)Nc1nc(-c2ccccc2)cs1 tested_on="Alpha glucosidase (Homo sapiens, UniProt O43451+P10253+P14410+Q2M2H8)" recorded_endpoint=IC50 reported_result="2.8 to 14 µM"

Please examine the following record next.
Task: Form entry - test system: Alpha glucosidase (Homo sapiens, UniProt O43451+P10253+P14410+Q2M2H8); read-out: IC50; compound: `O=C(CSc1nnc(-c2ccc(Br)cc2)c(-c2ccc(Br)cc2)n1)Nc1nc(-c2ccccc2)cs1`
Output: 2.8 to 14 µM

----------
- protocol description: Inhibition of yeast alpha-glucosidase using p-nitrophenyl-alpha-d-glucopyranoside as substrate preincubated for 15 mins followed by substrate addition measured after 20 mins
- Set-up: species or system Saccharomyces cerevisiae
recorded endpoint: IC50

Here's what some known entries look like.
substance_smiles=CN1CCN(c2ccc3[nH]c(-c4ccc(O)cc4)nc3c2)CC1 recorded_endpoint=IC50 reported_result="2.2 µM"
substance_smiles=Clc1ccc(-c2nc3ccc(N4CCOCC4)cc3[nH]2)cc1 recorded_endpoint=IC50 reported_result="3.4 to 20 µM"
substance_smiles=CN1CCN(c2ccc3nc(-c4ccc(F)c(Br)c4)[nH]c3c2)CC1 recorded_endpoint=IC50 reported_result="2.2 to 21 µM"
substance_smiles=COc1cc(-c2nc3ccc(N4CCOCC4)cc3[nH]2)ccc1O recorded_endpoint=IC50 reported_result="3.4 to 20 µM"
substance_smiles=CN1CCN(c2ccc3nc(-c4ccc(Cl)cc4)[nH]c3c2)CC1 recorded_endpoint=IC50 reported_result="2.2 to 21 µM"
substance_smiles=CN(C)c1ccc(-c2nc3ccc(N4CCOCC4)cc3[nH]2)cc1 recorded_endpoint=IC50 reported_result="3.4 to 20 µM"
substance_smiles=CN1CCN(c2ccc3nc(-c4ccc(N(C)C)cc4)[nH]c3c2)CC1 recorded_endpoint=IC50 reported_result="2.2 to 21 µM"
substance_smiles=CN1CCN(c2ccc3nc(-c4ccccn4)[nH]c3c2)CC1 recorded_endpoint=IC50 reported_result="2.2 to 21 µM"
substance_smiles=c1ccc(-c2nc3ccc(N4CCOCC4)cc3[nH]2)nc1 recorded_endpoint=IC50 reported_result="3.4 to 20 µM"
substance_smiles=CN1CCN(c2ccc3nc(-c4ccc(O)c(O)c4)[nH]c3c2)CC1 recorded_endpoint=IC50 reported_result="2.2 to 21 µM"

Task: Quick one: IC50 of `Fc1ccc(-c2nc3ccc(N4CCOCC4)cc3[nH]2)cc1Br` ?
Output: 3.4 to 20 µM

----------
- tested on: Alpha glucosidase (Homo sapiens, UniProt O43451+P10253+P14410+Q2M2H8)
- protocol description: Inhibition of alpha-glucosidase (unknown origin) using p-nitrophenyl-alpha-d-glucopyranoside as substrate preincubated for 15 mins followed by substrate addition measured after 30 mins
- Format: protein assay
recorded endpoint: IC50

Here's what some known entries look like.
molecule=Cc1cc(C)c2c(c1)/C(=N/Nc1nc(-c3ccc(F)cc3)cs1)C(=O)N2 reported_result="5.3 to 35 µM"
molecule=COc1cc(-c2ccc([N+](=O)[O-])cc2)ccc1O[C@H](C)Cn1cc(-c2ccc(C(F)(F)F)cc2)nn1 reported_result="14 to 218 µM"
molecule=O=C1Nc2ccccc2C1(c1cn(Cc2cccc(F)c2)c2ccccc12)c1cn(Cc2cccc(F)c2)c2ccccc12 reported_result="5.9 to 145 µM"

Task: Quick one: IC50 of `O=C1Nc2ccccc2/C1=N/Nc1nc(-c2ccc(Cl)cc2)cs1` ?
Output: 5.3 to 35 µM

Task: Quick one: IC50 of `Cc1ccc(-c2csc(N/N=C3\C(=O)Nc4ccccc43)n2)cc1` ?
Output: 5.3 to 35 µM

Task: Quick one: IC50 of `Cc1ccc(C(c2c[nH]c3ccc(C(=O)NNS(=O)(=O)c4ccc(C)cc4)cc23)c2c[nH]c3ccc(C(=O)NNS(=O)(=O)c4ccc(C)cc4)cc23)cc1` ?
Output: 0.1 to 5.1 µM

Task: Quick one: IC50 of `Cc1ccc(-c2csc(NC(=O)CSc3nnc(-c4ccc(Br)cc4)c(-c4ccc(Br)cc4)n3)n2)cc1` ?
Output: 2.8 to 14 µM

Task: Quick one: IC50 of `O=C(CSc1nnc(-c2ccc(Br)cc2)c(-c2ccc(Br)cc2)n1)Nc1nc(-c2ccc(Cl)cc2)cs1` ?
Output: 2.8 to 14 µM

Task: Quick one: IC50 of O=c1ccc2ccc(OCC(O)CSc3nnc(-c4cccc(F)c4)c(-c4cccc(F)c4)n3)cc2o1 (centres undefined) ?
Output: 32 to 148 µM

The origin of these recorded values is ChEMBL document CHEMBL4304757.
